Every entry's value here was drawn from paper PMC9516332.

target: panel of 255 wild-type kinases (Homo sapiens, UniProt P06239); test: Kinase panel profiling at 1 µmol/L (MSA or IMAP), percentage inhibition; assay type: biochemical; conditions: kinase LCK; 1 µmol/L single concentration; read-out: %-inhibition at 1 µmol/L, LCK
Sequence (P06239 whole entry): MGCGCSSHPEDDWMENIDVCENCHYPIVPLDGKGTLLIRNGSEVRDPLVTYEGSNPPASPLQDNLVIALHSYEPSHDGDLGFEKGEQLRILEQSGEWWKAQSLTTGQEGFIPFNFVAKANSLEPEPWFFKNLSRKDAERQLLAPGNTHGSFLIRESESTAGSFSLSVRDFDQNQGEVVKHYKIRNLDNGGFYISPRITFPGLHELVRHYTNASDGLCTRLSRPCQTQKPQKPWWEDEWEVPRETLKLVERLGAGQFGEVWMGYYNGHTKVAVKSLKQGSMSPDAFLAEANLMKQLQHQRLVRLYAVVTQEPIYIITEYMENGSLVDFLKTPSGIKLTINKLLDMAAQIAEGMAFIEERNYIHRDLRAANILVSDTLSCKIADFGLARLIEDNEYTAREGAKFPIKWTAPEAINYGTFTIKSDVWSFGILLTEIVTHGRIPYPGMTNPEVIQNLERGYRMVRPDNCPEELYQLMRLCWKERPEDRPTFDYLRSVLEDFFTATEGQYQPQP
Consider the following molecules; for each one, report its inhibition at 1 µM.

- CCN1CCN(c2ccc(Nc3cc(N(C)C(=O)Nc4c(Cl)c(OC)cc(OC)c4Cl)ncn3)cc2)CC1: 91%
- O=C(Nc1cnn2ccc(N3CCC[C@@H]3c3cc(F)ccc3F)nc12)N1CC[C@H](O)C1: 1.14%

List the reported inhibition at 1 µM of each molecule below.
1. CCN1C(=O)N(c2c(F)c(OC)cc(OC)c2F)Cc2cnc3[nH]c(CN4CCOCC4)cc3c21
2. Cc1nc(NC(=O)N2CCC[C@H]2C(N)=O)sc1-c1ccnc(C(C)(C)C(F)(F)F)c1

["17%", "5%"]
